- System: HeLa
- Method notes: Cytotoxicity against human HeLa cells assessed as reduction in cell viability by MTT assay
- Type: functional, cell-based
pIC50: −log10 of the molar value.
Could you please report measured pIC50 for the items listed next?

Req: Look at this compound and give its reported pIC50. CO[C@@]12c3c(C)cc(O)c4c3C(=C(O)[C@@H]1[C@]13COC(=O)c5c(O)cc(C)c(c51)C(=O)[C@H]2[C@@H]3OC(C)=O)C=NC4=O
Resp: 4.31

Req: Look at this compound and give its reported pIC50. CO[C@H]1OC(=O)c2c(O)cc(C)c3c4c(c(O)c1c23)[C@]12COC(=O)c3c(O)cc(C)c(c31)C(=O)[C@H]4[C@@H]2OC(C)=O
Resp: < 4.30

Req: Look at this compound and give its reported pIC50. CC(=O)O[C@H]1[C@@H]2C(=O)c3c(C)cc(O)c4c3[C@@]1(COC4=O)C1=C2c2c(C)cc(O)c3c2[C@@](O)(COC3=O)C1=O
Resp: < 4.00

Req: Look at this compound and give its reported pIC50. CC(=O)O[C@H]1[C@@H]2C(=O)c3c(C)cc(O)c4c3[C@@]1(COC4=O)c1c(O)c(C=O)c3cc(O)cc(C)c3c12
Resp: < 4.30

---

- Tested on: Staphylococcus haemolyticus
- Method notes: Antibacterial activity against Staphylococcus haemolyticus MNHN26 after 24 hrs
- Assay type: functional
- Run conditions: MNHN26, 24 h
Measurement label: MIC90 (µg/mL)
API: value field is a number in µg/mL; no unit string.

Req: Look at this compound and give its reported MIC90. CO[C@@]12c3c(C)cc(O)c4c3C(=C(O)[C@@H]1[C@]13COC(=O)c5c(O)cc(C)c(c51)C(=O)[C@H]2[C@@H]3OC(C)=O)C=NC4=O
Resp: 20.4

Req: Look at this compound and give its reported MIC90. CN(C)[C@@H]1C(O)=C(C(N)=O)C(=O)[C@@]2(O)C(O)=C3C(=O)c4c(O)cccc4[C@@](C)(O)[C@H]3C[C@@H]12
Resp: 29.5

Req: Look at this compound and give its reported MIC90. CC(=O)O[C@H]1[C@@H]2C(=O)c3c(C)cc(O)c4c3[C@@]1(COC4=O)c1c(O)c3c4c(c(O)cc(C)c4c12)C(=O)OC3
Resp: 9.5

---

Could you please report measured MIC90 for the items listed next?
- System: Staphylococcus haemolyticus
- Method notes: Antibacterial activity against Staphylococcus haemolyticus MNHN26 after 24 hrs
- Format: functional
- Run conditions: MNHN26, 24 h

Req: Look at this molecule and give its reported MIC90. CC(=O)O[C@H]1[C@@H]2C(=O)c3c(C)cc(O)c4c3[C@@]1(COC4=O)C1=C2c2c(C)cc(O)c3c2[C@@](O)(COC3=O)C1=O
Resp: > 30 µg/mL

Req: Look at this molecule and give its reported MIC90. CC(=O)O[C@H]1[C@@H]2C(=O)c3c(C)cc(O)c4c3[C@@]1(COC4=O)c1c(O)c(C=O)c3cc(O)cc(C)c3c12
Resp: > 50 µg/mL

Req: Look at this molecule and give its reported MIC90. CO[C@H]1OC(=O)c2c(O)cc(C)c3c4c(c(O)c1c23)[C@]12COC(=O)c3c(O)cc(C)c(c31)C(=O)[C@H]4[C@@H]2OC(C)=O
Resp: > 30 µg/mL
